Answer each item with its documented self-splicing fitness (ln).
protocol_summary: self-splicing fitness, log relative to wild type (ln ratio); higher = more splicing; Tetrahymena group I intron in knt gene, E. coli kanamycin selection, DiMSum; sequences stand for … in CUCUCU…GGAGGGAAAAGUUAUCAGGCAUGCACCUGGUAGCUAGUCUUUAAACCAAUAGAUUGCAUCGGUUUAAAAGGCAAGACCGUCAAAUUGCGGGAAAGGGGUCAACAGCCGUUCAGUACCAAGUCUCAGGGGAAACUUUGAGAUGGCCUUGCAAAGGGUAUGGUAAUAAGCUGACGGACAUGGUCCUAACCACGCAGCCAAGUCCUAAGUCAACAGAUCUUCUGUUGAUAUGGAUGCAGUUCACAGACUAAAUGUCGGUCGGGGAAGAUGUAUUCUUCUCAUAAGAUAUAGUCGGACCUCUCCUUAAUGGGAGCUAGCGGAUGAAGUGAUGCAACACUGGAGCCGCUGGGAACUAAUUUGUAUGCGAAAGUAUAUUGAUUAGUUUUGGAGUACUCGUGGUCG;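 note: selection with 25 µg/mL kanamycin versus none on LB agar overnight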
particulars: 37 °C
Lab note: jot the number down without any unit.

For reference, reported self-splicing fitness (ln) for `CUGUAGCAAUAUUACGGGUG` stands at -1.15

Lab note: measured self-splicing fitness (ln) of `UUGCAGCAAUAUUACGUGUA` was -1.07

Measured self-splicing fitness (ln) of `ACCCAGCAAUAUUACGCAUC` : 0.0782

sequence `ACCCAGCAAUAUUACGCUAC` , self-splicing fitness (ln) observed: -2.38

get_value(item= `UACAAGCAAUAUUACGGCAC` , readout=self-splicing fitness (ln)) returns -0.345

For `GGGAAGCAAUAUUACGCUAG` the sequence record lists self-splicing fitness (ln) as -1.01

Data point: `AAGUAGCAAUAUUACGUAAC` ; self-splicing fitness (ln) = -2.24

The recorded self-splicing fitness (ln) for entry `CGCGAGCAAUAUUACGAGAA` equals -2.08

---

Give measured self-splicing fitness (ln) for each item. Keep answers brief.
protocol_summary: self-splicing fitness, log relative to wild type (ln ratio); higher = more splicing; Tetrahymena group I intron in knt gene, E. coli kanamycin selection, DiMSum; sequences stand for … in CUCUCU…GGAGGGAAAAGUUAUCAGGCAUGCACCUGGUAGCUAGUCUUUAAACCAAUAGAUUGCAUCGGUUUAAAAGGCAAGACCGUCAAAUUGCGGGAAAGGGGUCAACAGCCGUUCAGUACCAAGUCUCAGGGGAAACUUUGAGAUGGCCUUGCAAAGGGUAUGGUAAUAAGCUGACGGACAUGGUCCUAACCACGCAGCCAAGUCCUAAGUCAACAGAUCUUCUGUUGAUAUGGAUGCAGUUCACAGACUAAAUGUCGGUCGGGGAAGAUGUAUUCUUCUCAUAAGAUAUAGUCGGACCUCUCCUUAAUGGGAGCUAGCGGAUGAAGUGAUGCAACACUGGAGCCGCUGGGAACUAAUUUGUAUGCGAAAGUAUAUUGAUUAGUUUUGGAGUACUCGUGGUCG
particulars: 30 °C

# self-splicing fitness (ln) of `AAUCAGCAAUAUUACGGUAG` = -1.83

Sure, the documented self-splicing fitness (ln) for `GCCAAGCAAUAUUACGGGUG` is -0.544

Notebook: `CUCUAGCAAUAUUACGACGG` , self-splicing fitness (ln) read as -2.32

Per the records, this sequence ( `GAGCAGCAAUAUUACGGCUG` ) has self-splicing fitness (ln) equal to -3.87

Briefly, self-splicing fitness (ln) measured for `UGAUAGCAAUAUUACGAGAG` : -3.29

# sequence `UGUCAGCAAUAUUACGAAGA` ; its self-splicing fitness (ln) = -0.706

The sequence identified as `UUGUAGCAAUAUUACGGGUU` registered its self-splicing fitness (ln) at -4.7

Lab note: `AGGAAGCAAUAUUACGUAUU` gave self-splicing fitness (ln) of -3.54

According to the records, this sequence `CUAGAGCAAUAUUACGGAGG` displays self-splicing fitness (ln) of -1.49

So, `UCCCAGCAAUAUUACGGGGG` ? Its self-splicing fitness (ln) was -4

self-splicing fitness (ln) measured on `CAAAAGCAAUAUUACGUGGU` = -3.65

Reported self-splicing fitness (ln) ( `UUGGAGCAAUAUUACGCUUC` ) = -3.11

Record `CUCAAGCAAUAUUACGCCCG` , field self-splicing fitness (ln): -0.954

Entry `CGCCAGCAAUAUUACGAUGA` ; self-splicing fitness (ln) = -2.2

The measured self-splicing fitness (ln) associated with `CAAAAGCAAUAUUACGGAUU` reads -3.49

`UGAGAGCAAUAUUACGCAUC` has a reported self-splicing fitness (ln) of -4.1
